molecular target: CYP2C9 (Homo sapiens); experiment: Inhibition of tolbutamide 4-hydroxylase activity of CYP2C9 in human liver microsomes at 10 uM preincubated for 5 mins followed by NADPH addition measured after 15 mins by LC-MS/MS analysis; format: ADME; settings: probe tolbutamide (4-hydroxylation)
Sequence (P11712 whole entry): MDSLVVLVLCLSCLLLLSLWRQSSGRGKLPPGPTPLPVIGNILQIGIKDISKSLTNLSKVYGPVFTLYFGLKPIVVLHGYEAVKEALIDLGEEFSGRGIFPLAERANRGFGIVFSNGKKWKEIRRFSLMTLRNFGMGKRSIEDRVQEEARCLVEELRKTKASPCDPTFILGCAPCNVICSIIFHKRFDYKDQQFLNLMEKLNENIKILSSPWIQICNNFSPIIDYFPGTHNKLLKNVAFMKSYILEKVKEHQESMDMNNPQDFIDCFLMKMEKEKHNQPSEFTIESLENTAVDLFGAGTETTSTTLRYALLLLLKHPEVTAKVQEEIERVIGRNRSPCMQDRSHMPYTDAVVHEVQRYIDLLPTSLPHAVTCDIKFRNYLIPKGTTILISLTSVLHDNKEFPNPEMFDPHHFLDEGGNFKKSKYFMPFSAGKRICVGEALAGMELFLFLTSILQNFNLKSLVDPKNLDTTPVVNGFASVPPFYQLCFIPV
READOUT_NAME: inhibition at 0.25 h, 10 µM (%)
All answers are understood in %, so give the number only.

Prompt line: // returns reported inhibition at 0.25 h, 10 µM for input Cc1cc(SC(Cc2ccccc2)c2ccc(-c3ccc(C(F)(F)F)cc3)cc2)ccc1OCC(=O)O (stereo unspecified)
Response line: 35.5

----------
target: CYP3A4 (Homo sapiens, UniProt P08684); assay: Inhibition of midazolam 1'-hydroxylase activity of CYP3A4 in human liver microsomes at 10 uM preincubated for 5 mins followed by NADPH addition measured after 15 mins by LC-MS/MS analysis; format: ADME; details: probe midazolam (1'-hydroxylation)
Sequence (P08684 whole entry): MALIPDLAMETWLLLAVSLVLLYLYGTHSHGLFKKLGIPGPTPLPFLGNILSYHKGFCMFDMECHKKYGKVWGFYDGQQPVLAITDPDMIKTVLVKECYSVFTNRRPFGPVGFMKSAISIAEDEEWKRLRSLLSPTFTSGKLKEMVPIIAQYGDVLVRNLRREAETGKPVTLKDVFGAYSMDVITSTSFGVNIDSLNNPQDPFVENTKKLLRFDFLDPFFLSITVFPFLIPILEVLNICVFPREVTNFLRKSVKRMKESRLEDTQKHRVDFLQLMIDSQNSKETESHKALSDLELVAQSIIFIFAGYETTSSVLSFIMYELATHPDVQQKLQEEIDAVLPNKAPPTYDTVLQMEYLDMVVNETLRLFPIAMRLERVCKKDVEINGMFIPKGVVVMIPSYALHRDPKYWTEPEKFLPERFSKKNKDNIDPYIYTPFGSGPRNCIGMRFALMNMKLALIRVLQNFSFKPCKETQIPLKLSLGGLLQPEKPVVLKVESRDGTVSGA
READOUT_NAME: inhibition at 0.25 h, 10 µM (%)
All answers are understood in %, so give the number only.

Prompt line: // returns reported inhibition at 0.25 h, 10 µM for input Cc1cc(SC(Cc2ccccc2)c2ccc(-c3ccc(C(F)(F)F)cc3)cc2)ccc1OCC(=O)O (stereo unspecified)
Response line: 7.3
